- measured.target: acetylcholinesterase (Rattus norvegicus, UniProt P37136)
- Construct: Acetylcholinesterase: rat cortex; from tissue; host or cells: rat cortex
- Sequence (P37136 32-614): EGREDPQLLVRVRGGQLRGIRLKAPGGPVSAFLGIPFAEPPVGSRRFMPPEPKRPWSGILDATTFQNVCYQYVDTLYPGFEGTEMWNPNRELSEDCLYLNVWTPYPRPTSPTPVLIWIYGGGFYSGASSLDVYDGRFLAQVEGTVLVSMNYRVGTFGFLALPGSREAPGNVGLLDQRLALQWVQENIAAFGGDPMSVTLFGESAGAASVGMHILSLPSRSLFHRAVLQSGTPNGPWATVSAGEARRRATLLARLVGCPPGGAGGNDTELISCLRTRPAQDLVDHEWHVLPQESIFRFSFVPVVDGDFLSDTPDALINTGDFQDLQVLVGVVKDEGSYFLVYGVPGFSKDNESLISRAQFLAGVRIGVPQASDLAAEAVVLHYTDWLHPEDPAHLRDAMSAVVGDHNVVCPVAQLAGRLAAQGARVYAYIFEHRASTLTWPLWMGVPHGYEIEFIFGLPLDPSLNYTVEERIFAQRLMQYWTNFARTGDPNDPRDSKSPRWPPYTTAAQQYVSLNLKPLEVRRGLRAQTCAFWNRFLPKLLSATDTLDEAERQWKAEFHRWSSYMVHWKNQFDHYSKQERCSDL
- assay.name: biochemical
- Type: biochemical
- condition.set: rat cortex enzyme; final concentration 4×10−5 mol/L
Each entry below carries its reported acetylcholinesterase inhibitory activity inhibition ratio (%).
Write it as a number; the unit % goes unstated.

Use the examples below as a reference point.
COc1cc2c(cc1OC)C(=O)C(CC1(F)CCN(Cc3ccc(-c4ccccc4)cc3)CC1)C2 (stereo not drawn) :: 90.25
COc1cc2c(cc1OC)C(=O)C(CC1(F)CC3CCC(C1)N3Cc1ccccc1C#N)C2 (stereo not drawn) :: 88.9
O=C1c2cc(OCC(F)(F)F)c(OCC(F)(F)F)cc2CC1CC1(F)CCN(Cc2ccccc2F)CC1 (stereo not drawn) :: 92.04
COc1cc2c(cc1OC)C(=O)C(CC1(F)CCN(Cc3ccccc3C#N)CC1)C2.Cl (stereo not drawn) :: 81.98
COc1cc2c(cc1OC)C(=O)C(CC1(F)CCN(Cc3cccc(F)c3)CC1)C2 (stereo not drawn) :: 82.24

Here is another compound to look at.
# lookup: acetylcholinesterase inhibitory activity inhibition ratio (%) of COc1cc2c(cc1OC)C(=O)C(CC1(F)CC3CCC(C1)N3Cc1ccccc1Br)C2 (stereo not drawn)
90.3
